# System: MS2 coat protein
# experiment.notes: apparent KD of MS2 coat protein; higher = weaker reporter binding
# condition.set: Eterna round: R107; input ligand: none
value.type: apparent KD of MS2 coat protein (nM)
Just the number in nM, nothing appended.

Recorded apparent KD of MS2 coat protein, per entry:
INSERT INTO assay_data (query_sequence, value_type, reported_measurement) VALUES
  ('AUUCAUGAAAACAUGACAUAGGGAUCACUCCGAGGACCGGUACGGCCGCCACUCGCGAGGAGGCACAUGAGGAUCACCCAUGUUA [SS Tryp A #3]', 'apparent KD of MS2 coat protein', 115),
  ('GGAUGAAACUGAAGGAGCGAGAACACAAGAAUGGGUCAAACAUGAGGAUCACCCAUGUAAUCUCAGGUAGGUCGCAGUAUCCCUU [Exclusion Arginine B GF 10]', 'apparent KD of MS2 coat protein', 34.3),
  ('AACGUAUACAGAAGGAGCGUGAAAUAAGUAAAUUAAUAAUAAACAUGAGGAUCACCCAUGUCACAGGUAGGUCGCUGUAUUCGUA [JR_ExcArginiB_Sub017]', 'apparent KD of MS2 coat protein', 21.5),
  ('UGUAUGGACUGAAGGAGCGGGAAAUAAACCUGAGGAACACCCAGGUAAUAGGCGAAAGCCACCCAGGUAGGUCGCAGUCCAUACU', 'apparent KD of MS2 coat protein', 13.6),
  ('ACAUGAGGAUCACCCAUGUGUCCUCGAAAACGAGGACCGGUACGGCCGCCACUCGAAAUAAGCUGUUGACGAAAAGUCAGCAGCA [Mat - Exclusion - Trytophan A - D21]', 'apparent KD of MS2 coat protein', 126);

Now for the sequence whose apparent KD of MS2 coat protein we want.
Q: Write down apparent KD of MS2 coat protein measured for item AGUCUUAUAGGAAGGAGCGCAAUCAUCACAUGAGGAUCACCCAUGUCAAGGUGAGAGUCAUUGCAGGUAGGUCGCCUAACUAAGA [Same State - Arginine B (Freestyle 9)]
Ans: 241

###

Items are presented alongside their recorded apparent KD of MS2 coat protein.
# Test system: MS2 coat protein
# experiment.notes: apparent KD of MS2 coat protein; designed switch direction (-1 OFF switch, 1 ON switch): -1; higher = weaker reporter binding
# condition.set: Eterna round: R95; input ligand: microRNA oligo, concentration not stated

Recorded apparent KD of MS2 coat protein, per entry:
INSERT INTO assay_data (query_sequence, value_type, reported_measurement) VALUES
  ('GAUCGUUUAGAGGAUAUCAUGCUAAACAUUACAUGAGAAGGCUAGACAUGAGGAUCACCCAUGUAUGCUCGUGA [Exclusion 6 - 9:a] (puzzle: Exclusion 6)', 'apparent KD of MS2 coat protein', '14 nM'),
  ('GUAAAGUGAGGAUAUGGUAAAUUAAUUAUUAAUUAAUUAAUCCAGAAGGCACAUGAGGAUCACCCAUGUUAAUG [Mat - Exclusion 4 - D89] (puzzle: Exclusion 4)', 'apparent KD of MS2 coat protein', '28.6 nM'),
  ('AAGAGGUCAGGAUAUUGGGCGGAAAGGGAAAGGAAAGGGCCCAAGAAGGGACAUGAGGAUCACCCAUGUAAGAA [Excls4-I] (puzzle: Exclusion 4)', 'apparent KD of MS2 coat protein', '33 nM');

Q: Write down apparent KD of MS2 coat protein measured for item UAUUAGCUAGGAUAUACAUGAGGAUCACCCAUGUCACGGGUCCACUUGUCCUAUGCGUGUAGAAGGAGCGACCC [JL Ceriza mod 3] (puzzle: Exclusion 3)
Ans: 20.7 nM

Q: Write down apparent KD of MS2 coat protein measured for item UUUUAACAUGAGGAUCACCCAUGUGAGGAUAUCGAAAUUUAUAUUAAUAUUAUUUAUACGAGAAGGCACAUUUU [JMF 46] (puzzle: Exclusion 1)
Ans: 64.9 nM

Q: Write down apparent KD of MS2 coat protein measured for item AGUACUAACACGAUAGUGUUAGUACAAUAAGCUUGUGUUACAUGAGGAUCACCCAUGUCCUCAUAAGCUCGUCUUAU [Mat - Sensor v3 - Turn-off var 2 - D54] (puzzle: Sensor v3, turn-off variant 2)
Ans: 30.4 nM

Q: Write down apparent KD of MS2 coat protein measured for item UUUUACAAGCCAGAUCCUCACAUGAGGAUCACCCAUGUGCUCGUCUGUUUUCGCACUAUCACGUUUGUGAUAGUGCU [Level Boss var2-10] (puzzle: Sensor v3, turn-off variant 1)
Ans: 12.9 nM

Q: Write down apparent KD of MS2 coat protein measured for item UUUAAUUUUUUUUUUUUACAAGCUUUUUGCUCGUCUUAUACAUGAGGAUCACCCAUGUAAAUGGGAGAUAAAUUAUC [JMF 17] (puzzle: Sensor v3, turn-off variant 2)
Ans: 52.4 nM

Q: Write down apparent KD of MS2 coat protein measured for item UUUAAUUUUUUUUUUUUACAAGCUUUUUGCUCGUCUUAUACAUGAGGAUCACCCAUGUAGAUGGGAGAUAAAUUAUC [JMF 20] (puzzle: Sensor v3, turn-off variant 2)
Ans: 85.3 nM

Q: Write down apparent KD of MS2 coat protein measured for item AGCCCUUGUGUCAGGAUAUGCAUCCUUAAUGGACGGCAGAAGGGACAUGAGGAUCACCCAUGUAAAUAGAAAAU [Sodixeti] (puzzle: Brourd's mod of Exclusion 4)
Ans: 111 nM

###

Items are presented alongside their recorded apparent KD of MS2 coat protein.
# Tested on: MS2 coat protein
# experiment.notes: apparent KD of MS2 coat protein; designed switch direction (-1 OFF switch, 1 ON switch): 1; higher = weaker reporter binding
# condition.set: Eterna round: R95; input ligand: microRNA oligo, concentration not stated
Just so you know, I need the unit written after the number.

Q: Write down apparent KD of MS2 coat protein measured for item GGUCCAGCCUGAGCUGGACAGAAGCAUGUACAUGAGGAUCACCCAUGUCAUGUACAAGCUUUUUGCUCGUCUUAAAA [JL mod - D87 - 1] (puzzle: Sensor for hsa-mir-208a)
Ans: 13.2 nM

Q: Write down apparent KD of MS2 coat protein measured for item UGUUAACAUGAGGAUCACCCAUGUCAAAUGAAUCGAGGAUAUGGAAAGUAAUAAGAUGAACUAGAAGGUGAAGUUG [Altered State 1-19 - Jieux - Same State 1] (puzzle: Same State 1)
Ans: 55.7 nM

###

# Tested on: MS2 coat protein
# experiment.notes: apparent KD of MS2 coat protein; higher = weaker reporter binding
# condition.set: Eterna round: R107; input ligand: theophylline 2 mM
Each entry belongs to exactly one class, chosen by where its apparent KD of MS2 coat protein falls: bin 0: < 30 nM; bin 1: ≥ 30 nM and < 200 nM; bin 2: ≥ 200 nM

INSERT INTO results (query_sequence, assay_system, cat) VALUES
  ('AAUUAAAACUGAAGGAGCGUCGUGCGUGGGUGCGUCCCACAUGAGGAUCACCCAUGUGGUUGACAGGUAGGUCGCAGAAUAAUUU [Exclusion - Arginine B]', 'MS2 coat protein', 'bin 1'),
  ('GGAUAGGACACGGCCGCCACUAUCUAGGAUACUAGCAACAUUUGGGUAUAUGAGGAUCACCCAUAUAGGACCGGGUGUCCUAUCG', 'MS2 coat protein', 'bin 2'),
  ('ACGCUGAUUGAUUACAAUCAGCGAAAAGAUACCAGUGGGUAAUCCCACCCUUGGCAGCUUAAAUAUGAGGAUCACCCAUAUGGUA [TheoAS 18 #MS2Right #BothOrNeither #AlternativeMS2]', 'MS2 coat protein', 'bin 2');

Q: Which apparent KD of MS2 coat protein category applies to GGUUGGUGUAGAGAUAUAUUGAUUACUGAAGGAGCGGGAAUAAACCCAGGUAGGUCGCAGAGAUCCACAUGAGGAUCACCCAUGU [!0.O] here?
Ans: bin 1

Q: Which apparent KD of MS2 coat protein category applies to UGUCAUGGAAACAUGACAGGUCUUACCGGUCGAGGACCGGUACGGCCGCCACUCGAUUGGUGGCACAUGAGGAUCACCCAUGUUA [SS Tryp A #16] here?
Ans: bin 1

Q: Which apparent KD of MS2 coat protein category applies to AUUAAUAAUAUGUAGACGGCGGAGACGAGACGAGGACCGGUACGGCCGCCACUCGUGUUAGUUAACAUGAGGAUCACCCAUGUUA [#10 Tryptophan A Same State] here?
Ans: bin 0

###

# Tested on: MS2 coat protein
# experiment.notes: apparent KD of MS2 coat protein; designed switch direction (-1 OFF switch, 1 ON switch): 1; higher = weaker reporter binding
# condition.set: input ligand: none
value.type: apparent KD of MS2 coat protein (nM)
Just the number in nM, nothing appended.

INSERT INTO measurements (query_sequence, unit_label, reported_measurement) VALUES
  ('CGUCGUUUGAUAGGAUAUCGCUUUACAUGAGGAUCACCCAUGUUUACCACGCUGGUUUUUCUUUCCGAGAAGGAUUCUGAUGUU [salish99_SSNG02_r04_023] (Eterna round: R96, puzzle: Same State NG 2)', 'nM', 35.9),
  ('UUGGUUCUCGUAGGAUAUGUAGGAUAUUCCUACAUGAGGAUCACCCAUGUUCGCAUGGAAGAAGGACAGAAGGACGAUCACCAU [pwkr ssNG2 2FMN + 1F5.18] (Eterna round: R96, puzzle: Same State NG 2)', 'nM', 14),
  ('AUUGCUUACGCAGGAUAUGAUGCGGAAACUGCGUCAGAAGGGUGAACAGAAUCGUUGCAAGAAGACAUGAGGAUCACCCAUGUC [SameState NG1 #96] (Eterna round: R96, puzzle: Same State NG 1)', 'nM', 44.4);

Now for the sequence whose apparent KD of MS2 coat protein we want.
Q: Answer with apparent KD of MS2 coat protein of AGCUAUUAAUCAGGAUAUGGUCACAUGAGGAUCACCCAUGUAUCGAUGAUAUGAUGUGGUCAAUACUAGAAGGGAUUGCUAACA [SameState NG2 #64] (Eterna round: R96, puzzle: Same State NG 2) measured for MS2 coat protein.
Ans: 152
